All figures here come from patent US12180193B2.

- targetUnderTest: BRAF G466V (Homo sapiens, UniProt P15056, G466V)
- Construct: expressed in transfected cells
- Sequence (P15056 whole entry G466V): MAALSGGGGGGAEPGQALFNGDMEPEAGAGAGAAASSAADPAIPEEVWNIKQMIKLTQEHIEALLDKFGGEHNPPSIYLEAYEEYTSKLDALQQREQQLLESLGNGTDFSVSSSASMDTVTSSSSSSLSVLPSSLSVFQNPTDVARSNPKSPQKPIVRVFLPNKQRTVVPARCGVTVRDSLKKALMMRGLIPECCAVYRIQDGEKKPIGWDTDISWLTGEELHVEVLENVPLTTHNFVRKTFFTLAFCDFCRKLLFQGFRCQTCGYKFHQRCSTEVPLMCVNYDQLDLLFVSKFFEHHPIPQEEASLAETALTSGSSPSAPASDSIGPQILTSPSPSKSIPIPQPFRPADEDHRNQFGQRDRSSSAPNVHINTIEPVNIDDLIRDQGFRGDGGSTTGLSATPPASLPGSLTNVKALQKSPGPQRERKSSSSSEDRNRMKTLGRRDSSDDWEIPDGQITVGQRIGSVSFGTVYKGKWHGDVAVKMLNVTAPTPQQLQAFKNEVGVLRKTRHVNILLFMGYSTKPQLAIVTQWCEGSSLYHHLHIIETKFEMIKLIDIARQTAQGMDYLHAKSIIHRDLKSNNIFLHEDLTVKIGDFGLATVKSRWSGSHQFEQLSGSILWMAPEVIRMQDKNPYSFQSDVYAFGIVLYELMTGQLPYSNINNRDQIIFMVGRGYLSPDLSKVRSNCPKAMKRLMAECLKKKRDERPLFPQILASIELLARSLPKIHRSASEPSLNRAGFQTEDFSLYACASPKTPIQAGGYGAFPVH
- assayMethodText: Cellular assay of target protein degradation, T-Rex 293 cells stably transfected with HA-BRAF G466V (HA immunofluorescence, high content imaging)
- Format: cell-based
- runParameters: maximum degradation observed, T-Rex 293 HA-BRAF G466V
Assignment: determine reported Dmax for the given compounds.

Inquiry: Please report Dmax for the following compound: O=C1CC[C@H](NC(=O)c2ccc(N3CCN(CC4CCN(c5ccc(-c6cnc7[nH]cc(C(=O)c8c(F)ccc(NS(=O)(=O)N9CC[C@@H](F)C9)c8F)c7c6)cc5)CC4)CC3)cc2F)C(=O)N1
Reply text: > 70%

Inquiry: Please list Dmax recorded for the compound O=C1CCC(N2Cc3cc(N4CCC(C5CCN(c6ccc(-c7cnc8[nH]cc(C(=O)c9c(F)ccc(NS(=O)(=O)N%10CC[C@@H](F)C%10)c9F)c8c7)cc6)CC5)CC4)ccc3C2=O)C(=O)N1 (stereo partly drawn)
Reply text: 35 to 70%

Inquiry: State its Dmax for this compound: C[C@H](c1ncc(-c2cnc3[nH]cc(C(=O)c4c(F)ccc(NS(=O)(=O)N5CC[C@@H](F)C5)c4F)c3c2)cn1)N1CCN(CC2CCN(c3ccc4c(c3)CN([C@H]3CCC(=O)NC3=O)C4=O)CC2)CC1
Reply text: 35 to 70%

Inquiry: Give Dmax for the following compound: O=C1CCC(N2Cc3cc(N4CC(CN5CCC(C6(c7ccc(-c8cnc9[nH]cc(C(=O)c%10c(F)ccc(NS(=O)(=O)N%11CC[C@@H](F)C%11)c%10F)c9c8)cc7)CC6)CC5)C4)ccc3C2=O)C(=O)N1 (stereo partly drawn)
Reply text: 35 to 70%

Inquiry: Please report Dmax for the following compound: O=C1CCC(N2Cc3cc(N4CCC(COCC5CCN(c6ccc(-c7cnc8[nH]cc(C(=O)c9c(F)ccc(NS(=O)(=O)N%10CC[C@@H](F)C%10)c9F)c8c7)cc6)CC5)CC4)ccc3C2=O)C(=O)N1 (stereo partly drawn)
Reply text: 35 to 70%

Inquiry: Report Dmax, nothing else, for this compound: COc1cc(N2CCC(CN3CC4(C3)CN(c3ccc(-c5cnc6[nH]cc(C(=O)c7c(F)ccc(NS(=O)(=O)N8CC[C@@H](F)C8)c7F)c6c5)cc3)C4)CC2)ccc1C(=O)N[C@H]1CCC(=O)NC1=O
Reply text: > 70%

Inquiry: Provide one value: measured Dmax of COc1cc([C@@H](O)CCN2CCN(c3ccc(-c4cnc5[nH]cc(C(=O)c6c(F)ccc(NS(=O)(=O)N7CC[C@@H](F)C7)c6F)c5c4)cc3)CC2)cc2c1C(=O)N([C@@H]1CCC(=O)NC1=O)C2
Reply text: 35 to 70%

Inquiry: Note Dmax for the compound shown: O=C1CC[C@@H](N2Cc3cc([C@@H](O)CCN4CCC(c5ccc(-c6cnc7[nH]cc(C(=O)c8c(F)ccc(NS(=O)(=O)N9CC[C@@H](F)C9)c8F)c7c6)cc5)CC4)ccc3C2=O)C(=O)N1
Reply text: 35 to 70%

Inquiry: Let me know recorded Dmax for CCN(C)S(=O)(=O)Nc1ccc(F)c(C(=O)c2c[nH]c3ncc(-c4ccc(N5CCC(CN6CCC(c7ccc8c(c7)CN(C7CCC(=O)NC7=O)C8=O)CC6)CC5)cc4)cc23)c1F (stereo not drawn) , thanks.
Reply text: > 70%

Inquiry: Determine its reported Dmax: O=C1CC[C@H](NC(=O)N2CCCc3c(N4CCC(CN5CCN(c6ccc(-c7cnc8[nH]cc(C(=O)c9c(F)ccc(NS(=O)(=O)N%10CC[C@@H](F)C%10)c9F)c8c7)cc6)CC5)CC4)ccnc32)C(=O)N1
Reply text: > 70%

Inquiry: Tell us which Dmax value is on record for O=C1CC[C@H](NC(=O)c2cc(C3CCN(CC4CCN(c5ccc(-c6cnc7[nH]cc(C(=O)c8c(F)ccc(NS(=O)(=O)N9CC[C@@H](F)C9)c8F)c7c6)cc5)CC4)CC3)ccc2F)C(=O)N1
Reply text: 35 to 70%

Inquiry: Indicate its recorded Dmax; the compound in question is O=C1CCC(N2Cc3cc(N4CC5(CCN(CC#Cc6ccc(-c7cnc8[nH]cc(C(=O)c9c(F)ccc(NS(=O)(=O)N%10CC[C@@H](F)C%10)c9F)c8c7)cc6)C5)C4)ccc3C2=O)C(=O)N1 (stereo partly drawn)
Reply text: 35 to 70%

Inquiry: Using known records, supply Dmax for O=C1CCC(N2Cc3cc(N4CCC5(CCN(CCc6ccc(-c7cnc8[nH]cc(C(=O)c9c(F)ccc(NS(=O)(=O)N%10CC[C@@H](F)C%10)c9F)c8c7)cc6)CC5)C4)ccc3C2=O)C(=O)N1 (stereo partly drawn)
Reply text: 35 to 70%

Inquiry: Item CN(c1ncc(-c2cnc3[nH]cc(C(=O)c4c(F)ccc(NS(=O)(=O)N5CC[C@@H](F)C5)c4F)c3c2)cn1)C1CCN(CC2CCN(c3ccc4c(c3)CN([C@H]3CCC(=O)NC3=O)C4=O)CC2)CC1 : provide Dmax
Reply text: 35 to 70%

Inquiry: Return the recorded Dmax value; entry: O=C1CCC(N2C(=O)c3ccc(C4CCN(CC5CCN(c6ccc(-c7cnc8[nH]cc(C(=O)c9c(F)ccc(NS(=O)(=O)N%10CC[C@@H](F)C%10)c9F)c8c7)cc6)CC5)CC4)cc3C2=O)C(=O)N1 (stereo partly drawn)
Reply text: 35 to 70%

Inquiry: Name the recorded Dmax of the compound listed here: O=C1CCN(c2ccc(C3CCN(CCC4CCN(c5ccc(-c6cnc7[nH]cc(C(=O)c8c(F)ccc(NS(=O)(=O)N9CC[C@@H](F)C9)c8F)c7c6)cc5)CC4)CC3)cc2F)C(=O)N1
Reply text: 35 to 70%

Inquiry: Name the recorded Dmax of the compound listed here: CCCS(=O)(=O)Nc1ccc(F)c(C(=O)c2c[nH]c3ncc(-c4ccc(N5CCC(CN6CC7(C6)CN(c6ccc8c(c6)CN([C@H]6CCC(=O)NC6=O)C8=O)C7)CC5)cc4)cc23)c1F
Reply text: > 70%

Inquiry: Please give measured Dmax of the following entry: O=C1CC[C@H](N2Cc3cc(N4CCC(OC5CCN(c6ccc(-c7cnc8[nH]cc(C(=O)c9c(F)ccc(NS(=O)(=O)N%10CC[C@@H](F)C%10)c9F)c8c7)cc6)CC5)CC4)ccc3C2=O)C(=O)N1
Reply text: 35 to 70%
